Below: a set of entries, each annotated with reported fold repression.
TARGET UNDER TEST: T1, ECF31_34
T1 chain: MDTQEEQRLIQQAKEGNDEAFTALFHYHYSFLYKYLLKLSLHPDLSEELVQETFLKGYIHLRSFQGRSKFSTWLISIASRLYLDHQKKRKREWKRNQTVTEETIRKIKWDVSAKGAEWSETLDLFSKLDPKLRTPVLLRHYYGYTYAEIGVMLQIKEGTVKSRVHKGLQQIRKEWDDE
Lab note: jot the number down without any unit.

AS27_1331 (protein) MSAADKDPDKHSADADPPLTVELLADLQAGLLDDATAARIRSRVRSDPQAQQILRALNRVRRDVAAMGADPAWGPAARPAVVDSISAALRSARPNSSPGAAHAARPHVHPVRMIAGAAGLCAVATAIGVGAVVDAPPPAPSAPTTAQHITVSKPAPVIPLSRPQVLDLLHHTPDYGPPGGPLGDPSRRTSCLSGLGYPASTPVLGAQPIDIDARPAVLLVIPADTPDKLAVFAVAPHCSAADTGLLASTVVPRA ... 5.7

Shift focus to the following entry.
Data request: Could you share which fold repression value was measured for AS31_34 (protein) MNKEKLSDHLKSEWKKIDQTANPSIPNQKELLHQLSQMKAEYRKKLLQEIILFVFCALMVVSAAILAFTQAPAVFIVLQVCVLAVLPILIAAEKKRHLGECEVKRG ?
Data returned: 22.7

Data credit: paper PMC3817407
